# test.system: UniProt:P52732
# Sequence (P52732 whole entry): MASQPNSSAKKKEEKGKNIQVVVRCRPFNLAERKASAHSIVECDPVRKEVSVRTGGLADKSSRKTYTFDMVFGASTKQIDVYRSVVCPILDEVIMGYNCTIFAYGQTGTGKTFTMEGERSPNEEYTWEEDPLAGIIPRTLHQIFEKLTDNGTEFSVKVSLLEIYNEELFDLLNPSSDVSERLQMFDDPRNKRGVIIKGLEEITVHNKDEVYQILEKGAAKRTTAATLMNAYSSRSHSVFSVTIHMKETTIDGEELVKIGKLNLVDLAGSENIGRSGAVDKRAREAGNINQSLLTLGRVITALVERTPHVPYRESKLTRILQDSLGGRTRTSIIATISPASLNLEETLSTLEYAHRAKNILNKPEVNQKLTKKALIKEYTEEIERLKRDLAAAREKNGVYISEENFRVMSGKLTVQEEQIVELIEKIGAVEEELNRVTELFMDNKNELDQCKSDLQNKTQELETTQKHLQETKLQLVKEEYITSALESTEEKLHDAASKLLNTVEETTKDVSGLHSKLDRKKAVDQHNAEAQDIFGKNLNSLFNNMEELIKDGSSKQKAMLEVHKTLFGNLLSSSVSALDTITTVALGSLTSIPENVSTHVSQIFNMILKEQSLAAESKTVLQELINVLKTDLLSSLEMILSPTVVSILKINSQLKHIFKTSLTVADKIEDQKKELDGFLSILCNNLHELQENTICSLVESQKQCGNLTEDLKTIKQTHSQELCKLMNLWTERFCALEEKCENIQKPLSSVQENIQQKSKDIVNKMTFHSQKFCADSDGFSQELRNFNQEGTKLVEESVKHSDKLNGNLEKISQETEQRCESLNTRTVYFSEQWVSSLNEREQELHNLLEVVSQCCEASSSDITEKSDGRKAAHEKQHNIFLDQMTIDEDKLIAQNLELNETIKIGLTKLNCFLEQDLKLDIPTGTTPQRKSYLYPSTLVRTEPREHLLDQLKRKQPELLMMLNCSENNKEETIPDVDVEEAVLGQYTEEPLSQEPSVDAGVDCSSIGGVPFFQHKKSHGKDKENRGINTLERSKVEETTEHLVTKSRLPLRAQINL
measure: Ki
# number then unit; no other words

Task: Return reported Ki for target or system UniProt:P52732, item O=C1CCc2cc(-c3ccc(C(F)(F)F)cc3)ccc2N1 .
Result: 1.7 nM
